Every entry's value here was drawn from PubChem BioAssay (NCI).

# Test system: OVCAR-8 ovarian
# test: NCI-60 one-dose screen, 48 h (100 = growth as untreated, 0 = no growth, -100 = all killed)
# cond: 10 µM unless noted
About 83,000 compounds went through this panel and 20% of them were active in at least one assay; those are over-represented in the sample as a whole.
metric name: growth (%)

>>> print(df.to_string())
                               smiles_record  metric_name  unit_label  measurement
 0        COc1ccccc1NC(=O)c1ccc(NC(=O)CCl)s1       growth           %          -61
 1  CCCCNC(=S)Nc1ccc(OCc2nc3ccc(Cl)cc3[nH]2)cc1       growth           %         38.7
 2  O=C1Nc2cc(-c3ccc(NS(=O)(=O)c4ccc([N+](=O)[O-])cc4)cc3)ccc2/C1=C/c1ccc[nH]1       growth           %         7.53
 3  COc1ccc2c(c1)N=c1c-2cc2c(O)[nH]c(=S)n2c1=O       growth           %         53.2
 4  NS(=O)(=O)c1ccc(Nc2nc(N/N=C/c3cc(Br)c(O)c(Br)c3)nc(Nc3ccccc3)n2)cc1       growth           %         57.7
 5  COc1ccc(C(=O)C[n+]2cccc3c4ccccc4ccc32)cc1       growth           %         25.9
 6  O=C(CSc1nnc(-c2ccc(-c3nc4ccccc4[nH]3)cc2)o1)Nc1ccc(Br)cc1       growth           %         4.46
 7  COc1cc2cc(C(=O)N3C[C@@H](CCl)c4c3cc(OC(=O)N(C)CCSSCCN3CCOCC3)c3ccccc43)[nH]c2c(OC)c1OC       growth           %        -41.4
 8  COc1ccc(-c2nc3ccc(-c4nnc(SCc5ccccc5)o4)cc3[nH]2)cc1       growth           %        -36.8
 9         CCCSc1nnc(-c2sc3nc4ccccc4n3c2C)o1       growth           %          107
10  COc1cccc2nc(Nc3cccc(NC(=O)c4ccc(CN5CCN(C)CC5)c(C(F)(F)F)c4)c3)ccc12       growth           %        -65.2
11  CC(=O)c1ccc2c(N)c(C(=O)Nc3ccc(C(F)(F)F)cc3)sc2n1       growth           %         61.1

====

# Test system: MDA-MB-231 breast
# test: NCI-60 one-dose screen, 48 h (100 = growth as untreated, 0 = no growth, -100 = all killed)
# cond: 10 µM unless noted
The panel holds about 83,000 compounds, 20% with a hit somewhere; the sample as a whole holds those more often.
Label NOT MET if growth falls below 40%; label MET in every other case.

>>> df
                                   molecule  category_label
0  COc1cc(C2CC(c3cc(OC)c(OC)c(OC)c3)=Nc3c(N)nc(N)nc3N2)ccc1Oc1nc(Nc2ccc(F)cc2)nc(N(C)C)n1 (stereo unspecified)         NOT MET
1  COc1ccc(-c2nc3ccccc3n2CC(=O)N=Nc2c(O)[nH]c3ccc(Br)cc23)cc1             MET
2              Nc1nnc(CS(=O)(=O)c2ccccc2)s1             MET
3  COc1cc(CNC(=O)C[C@H](C)CCC=C(C)C)ccc1OCc1cn(-c2ccccc2Cl)nn1             MET
4  CCN1CCN(Cc2ccc(C(=O)Nc3cccc(Nc4ccc5c(OC)cccc5n4)c3)cc2C(F)(F)F)CC1         NOT MET
5  COc1ccc(-c2nc3ccc(-c4nnc(SCc5ccccc5)o4)cc3[nH]2)cc1OC         NOT MET
6  S=C(Nc1ccc(OCc2nc3ccc(Cl)cc3[nH]2)cc1)NC1CCCCC1         NOT MET
7  COc1nc(N)ncc1-c1ccc2ncnc(N3CCc4cc(F)c(Cl)cc43)c2c1         NOT MET
8  Cc1nn(-c2ccccc2)c2ncn(CC(=O)N/N=C/c3ccccc3O)c(=O)c12         NOT MET
9  COc1cc(CNC(=O)C[C@H](C)CCC=C(C)C)ccc1OCc1cn(-c2ccc(Cl)c(Cl)c2)nn1             MET
